The reported measurements were obtained from ChEMBL document CHEMBL1124637.

Exercise: state measured half-life for each of the molecules provided.
test: Metabolic stability (Half life)of the compound at pH-7.4 was evaluated; assay type: ADME

[ask] // half-life lookup, key: CC1=CN2C(NC1=O)OC[C@@H]1CC[C@H]2O1 (some centres not stated)
[reply] 84.3 h

[ask] // half-life lookup, key: CC1=CN([C@H]2C[C@H](N=[N+]=[N-])[C@@H](CO)O2)C(N)NC1=O (some centres not stated)
[reply] > 168 h

###

test: Metabolic stability (Half life) at pH-2.0 was evaluated; format: ADME
quantity.measured: half-life (min)
Provide only the numeric value, understood in min.

[ask] // half-life lookup, key: CC1=CN2C(NC1=O)OC[C@@H]1CC[C@H]2O1 (stereo partly drawn)
[reply] 0.228

[ask] // half-life lookup, key: CC1=CN([C@H]2C[C@H](N=[N+]=[N-])[C@@H](CO)O2)C(N)NC1=O (stereo partly drawn)
[reply] 140

[ask] // half-life lookup, key: [N-]=[N+]=N[C@H]1C[C@H]2O[C@@H]1COC1NC(=O)C(Br)=CN12 (stereo partly drawn)
[reply] 14.3
